TEST SUMMARY: Solubility in water of sodium salts of Compound I
Type: physicochemical
EXPERIMENTAL CONTEXT: read-out: Aqueous Solubility of Sodium Salt Form of Compound I
VALUE TYPE: solubility (µg/mL)
The figure you give is taken to be in µg/mL; do not add the unit.

## Input Any idea what its solubility is? The molecule is Nc1nc(Cl)nc2c1ncn2[C@H]1[C@H](O)[C@H](O)[C@]2(COP(=O)(O)O)C[C@H]12 [Compound I]
## Output 3000
